Test: absolute recovery over mixed-bed multilayer solid-phase extraction; higher = better recovery
Settings: wastewater influent; enrichment method: SPE

compound: COC(=O)C(Cc1ccccc1)NC(=O)C(CC(=O)[O-])[NH2+]CCC(C)(C)C (stereo unspecified) [Neotam]
measurementUnit: %
absolute recovery: 95.2
//
compound: OCC(O)C[NH+]1CCN(c2ccccc2)CC1 (stereo unspecified) [Dropropizine]
measurementUnit: %
absolute recovery: 86.7
//
compound: C[NH2+]C(C)C(=O)c1ccc(C)cc1 (stereo unspecified) [Mephedron (=4-Methylmethcathinon)]
measurementUnit: %
absolute recovery: 72.7
//
compound: O=c1[nH]c2c(c(=O)n1C1CCCCC1)CCC2 [Lenacil]
measurementUnit: %
absolute recovery: 92.4
//
compound: O=C([O-])c1cccc(Oc2ccccc2)c1 [3-Phenoxybenzoic-acid]
measurementUnit: %
absolute recovery: 99.4
//
compound: CCOc1ccc(NC(=O)OC(C)C)cc1OCC [Diethofencarb]
measurementUnit: %
absolute recovery: 93.8

# credit: the supplement of paper PMC6470124
